B1: Intersectin-1, residues 909 to 971; numbered along this chain, Q15811 (parent)
chain: QGEKVEGLQAQALYPWRAKKDNHLNFNKNDVITVLEQQDMWWFGEVQGQKGWFPKSYVKLISG

Variants of: B1
ASSAY OVERVIEW: abundance fitness (aPCA) (normalised: wild type 0, dead -1); higher = more abundant; growth selection in yeast, the domain comes from the species named
MEASUREMENT PARAMETERS: Homo sapiens
Documented abundance fitness across a set of variants
Just the number, please.

Please review the following examples before continuing.
- VARIANT ANNOTATION: "D30E"
  abundance fitness: -0.089
- VARIANT ANNOTATION: "G7D"
  abundance fitness: -0.095
- VARIANT ANNOTATION: "K59A"
  abundance fitness: -0.165

QUERY: Suppose we examine the variant Q38L ; what abundance fitness value has been reported?
RESULT: -0.056
